EXPERIMENTAL PROTOCOL: APR_HepG2_CellLoss_72hr: Apredica 72-hour HepG2 Assay for Cell Loss (AID 2282915)
TEST CONDITIONS: high-content imaging
Active and inactive are the calls of the source. How the source made its calls: active means hit-call score of the fitted dose curve at least 0.9, where 1 is the maximum; inactive means score below 0.9.
Classes to choose from: TRUE for active, FALSE for inactive

Completed entries (count: 2):
compound="OCC1CO1 (centres undefined)" label_value=FALSE
compound=O=P(Oc1ccccc1)(Oc1ccccc1)Oc1ccccc1 label_value=TRUE

(Q) Kindly provide the recorded test outcome for the following compound: CC(C)(C)c1ccc(O)cc1
(A) FALSE

(Q) Kindly provide the recorded test outcome for the following compound: CCCCCCCc1ccc(O)cc1
(A) FALSE

(Q) Kindly provide the recorded test outcome for the following compound: CCNc1nc(Cl)nc(NC(C)(C)C)n1
(A) FALSE

(Q) Kindly provide the recorded test outcome for the following compound: CCCN(CCC)c1c([N+](=O)[O-])cc(C(C)C)cc1[N+](=O)[O-]
(A) TRUE

(Q) Kindly provide the recorded test outcome for the following compound: Cc1ccc(N)cc1N
(A) FALSE

(Q) Kindly provide the recorded test outcome for the following compound: Nc1cc2c3c(c1)C(c1ccccc1)=N[C@@H](NC(=O)c1cccnc1)C(=O)N3CC2
(A) FALSE

(Q) Kindly provide the recorded test outcome for the following compound: CN(C)C(=O)Cl
(A) FALSE

(Q) Kindly provide the recorded test outcome for the following compound: O=C(O)C1C(C(=O)O)C2(Cl)C(Cl)=C(Cl)C1(Cl)C2(Cl)Cl (centres undefined)
(A) FALSE

(Q) Kindly provide the recorded test outcome for the following compound: ClC1=C(Cl)C2(Cl)C3C(Cl)C(Cl)CC3C1(Cl)C2(Cl)Cl (centres undefined)
(A) TRUE

(Q) Kindly provide the recorded test outcome for the following compound: O=C(O)C(Cl)Cl
(A) FALSE

(Q) Kindly provide the recorded test outcome for the following compound: CCCCc1ccccc1
(A) FALSE

(Q) Kindly provide the recorded test outcome for the following compound: c1cc2c3c(cccc3c1)CC2
(A) FALSE

(Q) Kindly provide the recorded test outcome for the following compound: CCC(C)(C)c1ccc(O)cc1
(A) TRUE

(Q) Kindly provide the recorded test outcome for the following compound: CCOS(=O)(=O)OCC
(A) FALSE

(Q) Kindly provide the recorded test outcome for the following compound: Cc1cccc(N)c1
(A) FALSE

(Q) Kindly provide the recorded test outcome for the following compound: ClC(Cl)c1ccccc1
(A) FALSE

###

EXPERIMENTAL PROTOCOL: APR_HepG2_MitoticArrest_24hr: Apredica 24-hour HepG2 Assay for Mitotic Arrest (AID 2282910)
TEST CONDITIONS: high-content imaging, actives raise or lower the signal
Activity calls are given as the source filed them. How the source made its calls: active means hit-call score of the fitted dose curve at least 0.9, where 1 is the maximum; inactive means score below 0.9.
Classes to choose from: active, inactive

Completed entries (count: 5):
compound=O=P(Oc1ccccc1)(Oc1ccccc1)Oc1ccccc1 label_value=active
compound=CCOc1ccc(C(C)(C)COCc2cccc(Oc3ccccc3)c2)cc1 label_value=inactive
compound=c1nc[nH]n1 label_value=inactive
compound="O=C(O)C1C(C(=O)O)C2(Cl)C(Cl)=C(Cl)C1(Cl)C2(Cl)Cl (stereo not given)" label_value=inactive
compound=CCCCCCCc1ccc(O)cc1 label_value=inactive

(Q) Kindly provide the recorded test outcome for the following compound: CSC(C)(C)C=NO
(A) inactive

(Q) Kindly provide the recorded test outcome for the following compound: OCC1CO1 (stereo not given)
(A) inactive

(Q) Kindly provide the recorded test outcome for the following compound: CC(Cc1ccc(OCC(=O)O)cc1)NCC(O)c1csc(C(F)(F)F)n1 (stereo not given)
(A) inactive

(Q) Kindly provide the recorded test outcome for the following compound: CCN(CC)c1ccccc1
(A) inactive

(Q) Kindly provide the recorded test outcome for the following compound: c1ccc2c(c1)Nc1ccccc1S2
(A) inactive

(Q) Kindly provide the recorded test outcome for the following compound: ClC(Cl)c1ccccc1
(A) inactive

(Q) Kindly provide the recorded test outcome for the following compound: Nc1ccc2ccccc2c1
(A) inactive

(Q) Kindly provide the recorded test outcome for the following compound: c1ccc(OP(Oc2ccccc2)Oc2ccccc2)cc1
(A) inactive

(Q) Kindly provide the recorded test outcome for the following compound: c1cc2c3c(cccc3c1)CC2
(A) inactive

(Q) Kindly provide the recorded test outcome for the following compound: CC(C)(C)c1ccc(O)cc1
(A) inactive

// data source = PubChem BioAssay (EPA / NIEHS)
